Can you tell me OD450 at 0.1 nM for the items I'm about to list?
Tgt: T1, monkey GPC3-His protein (monkey)
T1 construct: Bought recombinant protein; also called monkey GPC3 protein
Method notes: ELISA, monkey GPC3-His coated;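 also: Plate-coated antigen at 1 µg/mL, antibody binding 2 h at 37 °C, detected with HRP-labeled secondary antibody and TMB, absorbance at 450 nm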
API: value field is a number in OD450; no unit string.

## Input Can you share its OD450 at 0.1 nM? I mean this binder: F4.21.16 (antibody, human IgG1, kappa, V domains shown, Human-murine chimeric antibody) VH: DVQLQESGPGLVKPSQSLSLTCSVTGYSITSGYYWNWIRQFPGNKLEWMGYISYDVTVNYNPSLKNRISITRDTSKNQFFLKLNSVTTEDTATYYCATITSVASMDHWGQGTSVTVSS VL: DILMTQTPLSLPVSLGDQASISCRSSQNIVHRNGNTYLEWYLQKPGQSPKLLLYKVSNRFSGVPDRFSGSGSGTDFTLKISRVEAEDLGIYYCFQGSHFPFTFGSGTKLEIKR
## Output 0.1

## Input Entry F4.13.7 (antibody, human IgG1, kappa, V domains shown, Human-murine chimeric antibody) VH: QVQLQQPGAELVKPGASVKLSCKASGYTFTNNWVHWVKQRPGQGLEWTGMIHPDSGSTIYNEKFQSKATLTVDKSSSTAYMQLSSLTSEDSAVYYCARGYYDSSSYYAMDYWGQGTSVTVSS VL: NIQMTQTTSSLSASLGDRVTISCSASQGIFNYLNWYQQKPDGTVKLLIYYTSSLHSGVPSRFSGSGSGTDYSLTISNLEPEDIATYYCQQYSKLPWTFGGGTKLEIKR please
## Output 1.55

## Input Repeat with F2.92.1 (antibody, human IgG1, kappa, V domains shown, Human-murine chimeric antibody) VH: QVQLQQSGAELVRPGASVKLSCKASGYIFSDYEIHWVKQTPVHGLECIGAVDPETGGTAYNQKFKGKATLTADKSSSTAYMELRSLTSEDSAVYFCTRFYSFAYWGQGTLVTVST VL: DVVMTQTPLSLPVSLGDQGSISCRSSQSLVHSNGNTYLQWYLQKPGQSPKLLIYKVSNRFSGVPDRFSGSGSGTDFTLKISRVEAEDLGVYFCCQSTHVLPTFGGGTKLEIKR
## Output 1.9

## Input Another binder: F4.18.4 (antibody, human IgG1, kappa, V domains shown, Human-murine chimeric antibody) VH: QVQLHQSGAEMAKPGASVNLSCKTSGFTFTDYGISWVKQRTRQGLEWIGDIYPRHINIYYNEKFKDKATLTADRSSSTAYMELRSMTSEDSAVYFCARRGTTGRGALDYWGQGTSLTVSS VL: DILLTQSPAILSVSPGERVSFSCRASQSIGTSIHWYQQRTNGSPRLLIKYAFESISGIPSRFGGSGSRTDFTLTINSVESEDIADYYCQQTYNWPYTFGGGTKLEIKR
## Output 0.85

## Input Again, but for F1.57.21 (antibody, human IgG1, kappa, V domains shown, Human-murine chimeric antibody) VH: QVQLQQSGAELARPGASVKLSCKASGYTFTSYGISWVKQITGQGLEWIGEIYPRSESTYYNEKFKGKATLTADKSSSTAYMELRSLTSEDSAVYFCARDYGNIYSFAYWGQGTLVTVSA VL: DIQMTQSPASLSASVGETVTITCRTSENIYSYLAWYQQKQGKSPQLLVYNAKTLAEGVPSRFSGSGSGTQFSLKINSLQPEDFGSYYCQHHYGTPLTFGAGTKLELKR
## Output 0.77

Numbers sourced from patent US20260116991A1.
